Below: a set of entries, each annotated with reported Kd.
Molecular target: Receptor-type tyrosine-protein kinase FLT3 (Homo sapiens); further: in the data inactive means no Kd found up to 30 µM
Sequence (P36888 whole entry): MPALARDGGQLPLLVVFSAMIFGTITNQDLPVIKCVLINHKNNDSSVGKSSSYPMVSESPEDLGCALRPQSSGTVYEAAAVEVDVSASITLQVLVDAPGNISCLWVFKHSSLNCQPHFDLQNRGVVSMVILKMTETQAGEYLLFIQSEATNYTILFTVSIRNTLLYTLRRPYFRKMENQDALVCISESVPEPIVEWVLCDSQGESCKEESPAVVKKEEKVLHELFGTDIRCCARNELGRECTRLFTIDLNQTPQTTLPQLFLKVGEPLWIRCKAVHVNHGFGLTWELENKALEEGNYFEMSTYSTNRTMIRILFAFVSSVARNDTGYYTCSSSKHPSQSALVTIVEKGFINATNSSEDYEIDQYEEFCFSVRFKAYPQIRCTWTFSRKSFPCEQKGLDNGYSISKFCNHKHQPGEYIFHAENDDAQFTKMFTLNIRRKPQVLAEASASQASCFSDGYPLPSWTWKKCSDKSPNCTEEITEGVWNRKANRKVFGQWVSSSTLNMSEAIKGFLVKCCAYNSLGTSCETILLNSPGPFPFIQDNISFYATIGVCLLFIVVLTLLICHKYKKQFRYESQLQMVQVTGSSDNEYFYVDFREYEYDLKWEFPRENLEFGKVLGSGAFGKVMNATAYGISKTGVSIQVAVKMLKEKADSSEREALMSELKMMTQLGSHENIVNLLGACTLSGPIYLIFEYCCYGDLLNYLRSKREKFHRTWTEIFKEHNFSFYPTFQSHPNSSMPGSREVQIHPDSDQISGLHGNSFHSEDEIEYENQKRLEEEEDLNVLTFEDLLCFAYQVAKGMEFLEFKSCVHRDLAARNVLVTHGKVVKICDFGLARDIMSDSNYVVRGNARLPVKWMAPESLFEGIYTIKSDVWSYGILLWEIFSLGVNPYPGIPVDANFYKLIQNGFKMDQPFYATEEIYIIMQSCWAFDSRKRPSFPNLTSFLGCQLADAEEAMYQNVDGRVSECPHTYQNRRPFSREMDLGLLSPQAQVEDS
Activity calls are given as the source filed them.

Reference set (4 entries):
compound="O=C(c1ccc(F)c(F)c1Nc1ccc(I)cc1F)N1CC(O)([C@@H]2CCCCN2)C1 [COBIMETINIB]" endpoint_value="> 30 µM (inactive)"
compound="CNC(=O)CN1CCC(Oc2cc3c(Nc4cccc(Cl)c4F)ncnc3cc2OC)CC1 [SAPITINIB]" endpoint_value="> 30 µM (inactive)"
compound="CNC(=O)c1ccc(-c2cnc3ncc(Cc4ccc5ncccc5c4)n3n2)cc1F [CAPMATINIB]" endpoint_value="> 30 µM (inactive)"
compound="CN1CCC(CNc2ccc3ncc(-c4cccc(OC(F)(F)F)c4)n3n2)CC1 [SGI-1776]" endpoint_value="0.143 µM (active)"

Attention now shifts to the item below.
stdin: Quick check: Kd of COCCNCc1ccc(-c2cc3nccc(Oc4ccc(NC(=S)NC(=O)Cc5ccc(F)cc5)cc4F)c3s2)nc1 [GLESATINIB] ?
stdout: 0.179 µM (active)
